selectivity ratio values for the molecules below.
procedure text: Selectivity ratio of MHC10 for BALB/C mouse erythrocytes to MIC for fungi
Type: toxicity
Where a SMILES comes first, the peptide text is derived from it.
Form field (numeric): enter value without unit.

Per the record, NCCCC[C@H](NC(=O)[C@H](CCCCN)NC(=O)[C@H](Cc1c[nH]c2ccccc12)NC(=O)[C@H](CCCCN)NC(=O)[C@H](CCCCN)NC(=O)[C@H](Cc1c[nH]c2ccccc12)NC(=O)[C@H](Cc1c[nH]c2ccccc12)NC(=O)[C@@H](N)CCCCN)C(=O)N[C@@H](Cc1c[nH]c2ccccc12)C(=O)N[C@@H](Cc1c[nH]c2ccccc12)C(N)=O (H-KWWKKWKKWW-NH2) has selectivity ratio of 28.2

Continuing:
Per the record, N=C(N)NCCC[C@H](NC(=O)[C@H](CCCCN)NC(=O)[C@H](Cc1c[nH]c2ccccc12)NC(=O)[C@H](Cc1c[nH]c2ccccc12)NC(=O)[C@@H](N)CCCCN)C(=O)N[C@@H](Cc1c[nH]c2ccccc12)C(=O)N[C@@H](CCCCN)C(=O)N[C@@H](CCCCN)C(=O)N[C@@H](Cc1c[nH]c2ccccc12)C(=O)N[C@@H](Cc1c[nH]c2ccccc12)C(N)=O (H-KWWKRWKKWW-NH2) has selectivity ratio of 8.16

====

Tested on: Klebsiella pneumoniae
procedure text: Bactericidal activity against Klebsiella pneumoniae 700603 at 2MIC by time-kill assay relative to control
Format: functional
study conditions: 2M, TDE = time-dependent effect
Where a SMILES comes first, the peptide text is derived from it. Bridges are numbered along the chain shown (N, C = ends). [ ]: non-standard residue; d: D form. The star is where a group is joined. X1 = CC[C@H](C)CCCCC(=O)*; Dab = NCC[C@H](N)C(=O)O
measured endpoint: Activity

Per the record, CC[C@H](C)CCCCC(=O)N[C@@H](CCN)C(=O)N[C@H](C(=O)N[C@@H](CCN)C(=O)N[C@H]1CCNC(=O)[C@H]([C@@H](C)O)NC(=O)[C@H](CCN)NC(=O)[C@H](CCN)NC(=O)[C@H](CC(C)C)NC(=O)[C@@H](Cc2ccccc2)NC(=O)[C@H](CCN)NC1=O)[C@@H](C)O (X1-[Dab]T[Dab][Dab][Dab][dF]L[Dab][Dab]T; lactam 4-C) has Activity of Tde

Per the record, NCCCC[C@H](NC(=O)[C@H](CCCCN)NC(=O)[C@H](Cc1c[nH]c2ccccc12)NC(=O)[C@H](CCCCN)NC(=O)[C@H](CCCCN)NC(=O)[C@H](Cc1c[nH]c2ccccc12)NC(=O)[C@H](Cc1c[nH]c2ccccc12)NC(=O)[C@@H](N)CCCCN)C(=O)N[C@@H](Cc1c[nH]c2ccccc12)C(=O)N[C@@H](Cc1c[nH]c2ccccc12)C(N)=O (H-KWWKKWKKWW-NH2) has Activity of Tde

Per the record, CN[C@H](CC(C)C)C(=O)N[C@H]1C(=O)N[C@@H](CC(N)=O)C(=O)N[C@H]2C(=O)N[C@H]3C(=O)N[C@H](C(=O)N[C@H](C(=O)O)c4cc(O)cc(O)c4-c4cc3ccc4O)[C@H](O)c3ccc(c(Cl)c3)Oc3cc2cc(c3O[C@@H]2O[C@H](CO)[C@@H](O)[C@H](O)[C@H]2O[C@H]2C[C@](C)(N)[C@H](O)[C@H](C)O2)Oc2ccc(cc2Cl)[C@H]1O [VANCOMYCIN] has Activity of Tde

Per the record, CC[C@H](C)[C@H](NC(=O)[C@H](CCCNC(=N)N)NC(=O)[C@H](CCCCN)NC(=O)[C@H](CC(C)C)NC(=O)[C@H](CC(C)C)NC(=O)CN)C(=O)N[C@@H](CCCCN)C(=O)N[C@H](C(=O)N[C@@H](CC(C)C)C(=O)N[C@@H](CC(C)C)C(N)=O)[C@@H](C)O [ANOPLIN] (H-GLLKRIKTLL-NH2) has Activity of Tde
